Molecular target: GLS1 (purified recombinant human GAC) (Homo sapiens, UniProt O94925)
Assay: GLS1 Enzymatic Activity Assay (dual-coupled enzymatic assay)
Settings: 50 mM potassium phosphate, 1 mM glutamine, read-out: IC50 against GLS1
pIC50: −log10 of the molar value.
MEASURE: pIC50

Recorded results for 3 compounds are shown here.
1) O=C(Cc1cccc(OC(F)(F)F)c1)Nc1ccc(N2CCC(c3nnc(NC(=O)CC4CCCCO4)s3)C2)nn1 (centres unmarked) [Example 34] :: > 7.00
2) O=C(Cc1cccc(OC(F)(F)F)c1)Nc1ccc(N2CCCC(n3cc(C(=O)NCc4ccccn4)nn3)C2)nn1 (centres unmarked) [Example 7] :: 6.30 to 7.00
3) Cc1cc(OC2CC(F)(F)C2)cc(CC(=O)Nc2ccc(C3CCN(c4nnc(C(=O)NCc5ccccn5)s4)C3)nn2)n1 (centres unmarked) [Example 51] :: > 7.00

*Q* Suppose we examine the compound O=C(Cc1ccccn1)Nc1ccc([C@@H]2CCN(c3nnc(C(=O)NCc4cc(C(F)(F)F)ccn4)s3)C2)nn1 [Example 44] ; what pIC50 value has been reported?
*A* > 7.00

*Q* Suppose we examine the compound O=C(Cc1cccc(OC(F)(F)F)c1)Nc1ccc(N2CCCC(c3nnc(NC(=O)Cc4ccccc4F)s3)C2)nn1 (centres unmarked) [Example 23] ; what pIC50 value has been reported?
*A* > 7.00

*Q* Suppose we examine the compound O=C(Cc1cccc(OC(F)(F)F)c1)Nc1ccc(N2CCCC(c3nnc(NC(=O)Cc4ccccn4)s3)C2)nn1 (centres unmarked) [Example 14] ; what pIC50 value has been reported?
*A* > 7.00

*Q* Suppose we examine the compound CC(=O)Nc1nnc(N2CCC(c3ccc(NC(=O)Cc4cccc(OC(F)(F)F)c4)nn3)C2)s1 (centres unmarked) [Example 27] ; what pIC50 value has been reported?
*A* > 7.00

*Q* Suppose we examine the compound CNC(=O)c1nnc(N2CCC(c3ccc(NC(=O)Cc4cn(-c5cccc(OC(F)(F)F)c5)cn4)nn3)C2)s1 (centres unmarked) [Example 40] ; what pIC50 value has been reported?
*A* > 7.00

*Q* Suppose we examine the compound Nc1nnc(C2CCCN(c3ccc(NC(=O)Cc4cccc(OC(F)(F)F)c4)nn3)C2)s1 (centres unmarked) [Example 13] ; what pIC50 value has been reported?
*A* 6.30 to 7.00

---

Recorded pIC50 by entry
Target: GLS1 (purified recombinant human GAC) (Homo sapiens, UniProt O94925)
Test: GLS1 Enzymatic Activity Assay (dual-coupled enzymatic assay)
Conditions: 50 mM potassium phosphate, 1 mM glutamine, read-out: IC50 against GLS1
pIC50: −log10 of the molar value.

Recorded results for 3 compounds are shown here.
1) O=C(Cc1ccccn1)Nc1nnc(C2CCN(c3nnc(NC(=O)Cc4cccc(OC(F)(F)F)c4)s3)C2)s1 (stereo not shown) :: 6.30 to 7.00
2) O=C(Cc1cccc(OC(F)(F)F)c1)Nc1ccc(N2CCC(c3nnc(NC(=O)Cc4ccccc4F)s3)C2)nn1 (stereo not shown) [Example 20, 2,2,2-trifluoroacetate] :: > 7.00
3) Cc1cccc(CNC(=O)c2nnc(N3CCC(c4ccc(NC(=O)Cc5cccc(C)n5)nn4)C3)s2)n1 (stereo not shown) :: > 7.00

*Q* Kindly state the measured pIC50 obtained for Cc1cccc(CC(=O)Nc2ccc(C3CCN(c4nnc(C(=O)NCc5cc(C(F)(F)F)ccn5)s4)C3)nn2)n1 (stereo not shown) with GLS1 (purified recombinant human GAC) (Homo sapiens, UniProt O94925).
*A* > 7.00

*Q* Kindly state the measured pIC50 obtained for CC(=O)Nc1cn(C2CCN(c3ccc(NC(=O)Cc4cccc(OC(F)(F)F)c4)nn3)C2)nn1 (stereo not shown) with GLS1 (purified recombinant human GAC) (Homo sapiens, UniProt O94925).
*A* 6.30 to 7.00

*Q* Kindly state the measured pIC50 obtained for Nc1nnc(C2CCCN(c3nnc(NC(=O)Cc4cccc(OC(F)(F)F)c4)s3)C2)s1 (stereo not shown) with GLS1 (purified recombinant human GAC) (Homo sapiens, UniProt O94925).
*A* 6.30 to 7.00

*Q* Kindly state the measured pIC50 obtained for Cc1cc(C(F)(F)F)cc(CNC(=O)c2nnc(N3CC[C@@H](c4ccc(NC(=O)Cc5ccccn5)nn4)C3)s2)n1 with GLS1 (purified recombinant human GAC) (Homo sapiens, UniProt O94925).
*A* > 7.00

---

Biological target: GLS1 (purified recombinant human GAC) (Homo sapiens, UniProt O94925)
Sequence (O94925 55-598 isoform O94925-3 limits assumed): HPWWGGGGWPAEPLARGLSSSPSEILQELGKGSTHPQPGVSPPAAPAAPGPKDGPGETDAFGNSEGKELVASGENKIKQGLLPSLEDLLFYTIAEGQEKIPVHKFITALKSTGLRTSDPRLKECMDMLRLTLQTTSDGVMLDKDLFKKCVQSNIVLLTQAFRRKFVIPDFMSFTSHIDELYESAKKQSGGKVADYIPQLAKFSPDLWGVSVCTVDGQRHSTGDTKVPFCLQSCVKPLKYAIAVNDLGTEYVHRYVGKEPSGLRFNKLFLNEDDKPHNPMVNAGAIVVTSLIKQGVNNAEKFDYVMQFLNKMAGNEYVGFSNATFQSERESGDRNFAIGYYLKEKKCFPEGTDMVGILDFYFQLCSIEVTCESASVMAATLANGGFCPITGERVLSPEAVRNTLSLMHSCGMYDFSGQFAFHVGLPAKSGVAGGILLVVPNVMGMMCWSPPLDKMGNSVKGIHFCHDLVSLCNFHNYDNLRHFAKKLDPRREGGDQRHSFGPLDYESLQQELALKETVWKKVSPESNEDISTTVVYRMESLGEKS
Assay: GLS1 Enzymatic Activity Assay (dual-coupled enzymatic assay)
Conditions: 50 mM potassium phosphate, 1 mM glutamine, read-out: IC50 against GLS1
Recorded IC50 by entry

Recorded results for 3 compounds are shown here.
1. CNC(=O)c1cn(C2CCN(c3ccc(NC(=O)Cc4cccc(OC(F)(F)F)c4)nn3)C2)nn1 (stereo not shown) [Example 6] :: 100 to 500 nM
2. O=C(Cc1cccc(OC(F)(F)F)c1)Nc1ccc(N2CCC(c3nnc(NC(=O)Cc4ccccn4)s3)C2)nn1 (stereo not shown) [Example 17, 2,2,2-trifluoroacetate] :: < 100 nM
3. O=C(Cc1ccccn1)Nc1ccc(N2CCC(c3nnc(NC(=O)Cc4cccc(OC(F)(F)F)c4)s3)C2)nn1 (stereo not shown) [Example 42] :: < 100 nM

*Q* Suppose we examine the compound O=C(Cc1cccc(OC(F)(F)F)c1)Nc1ccc(N2CCC(n3cc(C(=O)NCc4ccccn4)nn3)C2)nn1 (stereo not shown) [Example 8] ; what IC50 value has been reported?
*A* 100 to 500 nM

---

Target: GLS1 (purified recombinant human GAC) (Homo sapiens)
Experiment: GLS1 Enzymatic Activity Assay (dual-coupled enzymatic assay)
Settings: 50 mM potassium phosphate, 1 mM glutamine, read-out: IC50 against GLS1
MEASURE: IC50

1) O=C(Cc1ccccn1)Nc1nnc(C2CCCN(c3nnc(NC(=O)Cc4cccc(OC(F)(F)F)c4)s3)C2)s1 (stereo not drawn) :: < 100 nM
2) O=C(Cc1ccccn1)Nc1ccc([C@@H]2CCN(c3nnc(C(=O)NCc4cc(C5CC5)ccn4)s3)C2)nn1 :: < 100 nM
3) O=C(Cc1cccc(OC(F)(F)F)c1)Nc1ccc(N2CCC(c3nnc(NC(=O)Cc4ccc(F)cc4F)s3)C2)nn1 (stereo not drawn) :: < 100 nM
4) Cc1cc(OC2CC(F)(F)C2)cc(CC(=O)Nc2ccc(C3CCN(c4nnc(C(=O)NCc5cc(C(F)(F)F)ccn5)s4)C3)nn2)n1 (stereo not drawn) :: < 100 nM
5) O=C(Cc1cccc(OC(F)(F)F)c1)Nc1ccc(C2CCN(c3nnc(C(=O)NCc4ccccn4)s3)C2)nn1 (stereo not drawn) :: < 100 nM
6) O=C(Nc1ccc(N2CCC(n3cc(C(=O)NCc4ccccn4)nn3)C2)nn1)OCc1ccccc1 (stereo not drawn) :: 500 to 5000 nM

*Q* Suppose we examine the molecule CC(=O)Nc1nnc(C2CCCN(c3nnc(NC(=O)Cc4cccc(OC(F)(F)F)c4)s3)C2)s1 (stereo not drawn) ; what IC50 value has been reported?
*A* 100 to 500 nM

*Q* Suppose we examine the molecule CC(=O)Nc1nnc(C2CCN(c3ccc(NC(=O)Cc4cccc(OC(F)(F)F)c4)nn3)C2)s1 (stereo not drawn) ; what IC50 value has been reported?
*A* < 100 nM

---

Target: GLS1 (purified recombinant human GAC) (Homo sapiens, UniProt O94925)
Assay: GLS1 Enzymatic Activity Assay (dual-coupled enzymatic assay)
Settings: 50 mM potassium phosphate, 1 mM glutamine, read-out: IC50 against GLS1
pIC50: −log10 of the molar value.
Recorded pIC50 by entry

Recorded results for 3 compounds are shown here.
1. O=C(Cc1ccccn1)Nc1ccc(C2CCN(c3nnc(C(=O)NCc4cc(C(F)(F)F)ccn4)s3)C2)nn1 (stereo not shown) :: > 7.00
2. O=C(Cc1ccccc1)Nc1ccc(N2CCCC(c3nnc(NC(=O)Cc4ccccc4)s3)C2)nn1 (stereo not shown) :: > 7.00
3. O=C(Cc1cccc(OC(F)(F)F)c1)Nc1ccc(N2CCC(c3nnc(NC(=O)Cc4noc5ccccc45)s3)C2)nn1 (stereo not shown) :: > 7.00

*Q* Kindly state the measured pIC50 obtained for Nc1nnc(C2CCCN(c3ccc(NC(=O)Cc4ccccc4)nn3)C2)s1 (stereo not shown) with GLS1 (purified recombinant human GAC) (Homo sapiens, UniProt O94925).
*A* 6.30 to 7.00

*Q* Kindly state the measured pIC50 obtained for O=C(Cc1ccccn1)Nc1ccc([C@@H]2CCN(c3nnc(C(=O)NCc4ccccn4)s3)C2)nn1 with GLS1 (purified recombinant human GAC) (Homo sapiens, UniProt O94925).
*A* > 7.00

*Q* Kindly state the measured pIC50 obtained for NC(=O)c1nnc(N2CCC(c3ccc(NC(=O)Cc4ccccn4)nn3)C2)s1 (stereo not shown) with GLS1 (purified recombinant human GAC) (Homo sapiens, UniProt O94925).
*A* 6.30 to 7.00

*Q* Kindly state the measured pIC50 obtained for Cc1cccc(CNC(=O)c2nnc(N3CCC(c4ccc(NC(=O)Cc5cc(OC6CC(F)(F)C6)cc(C)n5)nn4)C3)s2)n1 (stereo not shown) with GLS1 (purified recombinant human GAC) (Homo sapiens, UniProt O94925).
*A* > 7.00

Source listed as patent US10738043B2.
